Listing: EC50 of selected compounds
- Tested on: Symmetric Di-methyl Arginine (SDMA) signal (PRMT5 inhibition) in HCT116 MTAP-deleted cells
- test_method_notes: Symmetric di-methyl arginine image-based high content screen assay (SDMA assay), HCT116 MTAP-deleted
- Assay type: cell-based
- reported_conditions: Homo sapiens, HCT-116, HCT116 MTAP-deleted, class symbols
measurement_type: EC50

compound="Cc1ncc2c(N)nc3ccc(C(=O)N4CCC[C@@H]5Oc6cc(OC(F)(F)F)ccc6[C@@H]54)cc3n12 [Ff-640]" target_or_test_system="Symmetric Di-methyl Arginine (SDMA) signal (PRMT5 inhibition) in HCT116 MTAP-deleted cells" result="1 to 5 nM"
compound="Cc1ncn2c1c(N)nc1ccc(C(=O)N(C)[C@@H]3COCc4cc(Br)ccc43)cc12 [Fg-13]" target_or_test_system="Symmetric Di-methyl Arginine (SDMA) signal (PRMT5 inhibition) in HCT116 MTAP-deleted cells" result="≤ 1 nM"
compound="Cc1ncc2c(N)nc3ccc(C(=O)N4C[C@@H](F)C[C@@H]5Oc6cc(C(F)(F)F)ccc6[C@@H]54)cc3n12 [Ff-660]" target_or_test_system="Symmetric Di-methyl Arginine (SDMA) signal (PRMT5 inhibition) in HCT116 MTAP-deleted cells" result="≤ 1 nM"
compound="Cc1ncn2c1c(N)nc1cnc(C(=O)N3C[C@@H](F)C[C@@H]4Oc5cc(C(F)(F)F)ccc5[C@@H]43)cc12 [Ff-658]" target_or_test_system="Symmetric Di-methyl Arginine (SDMA) signal (PRMT5 inhibition) in HCT116 MTAP-deleted cells" result="1 to 5 nM"

* * *

- test_method_notes: Pharmacokinetics in cassette in male cynomolgus monkeys for Kp measurement
- Type: in vivo
- reported_conditions: cynomolgus monkey, intravenous, 0.5 mg/kg, brain Kpu,u = Kp * (plasma free/rat brain free), read-out: Cyno brain Kpu,u
measurement_type: Kp

compound="Cc1ncn2c1c(N)nc1cnc(C(=O)N3CCC[C@@H]4Oc5cc(C(F)(F)F)ccc5[C@@H]43)cc12 [Ff-499]" result=0.51
compound="Cc1ncc2c(N)nc3cnc(C(=O)N4CCC[C@@H]5Oc6cc(OC(F)(F)F)ccc6[C@@H]54)cc3n12 [Ff-340]" result=0.32
compound="Nc1nc2cnc(C(=O)N3CCC[C@@H]4Oc5cc(C(F)(F)F)ccc5[C@@H]43)cc2n2cncc12 [Ff-110]" result=0.1
compound="Nc1nc2cc(F)c(C(=O)N3CCC[C@@H]4Oc5cc(C(F)(F)F)ccc5[C@@H]43)cc2n2cncc12 [Ff-104]" result=0.19

* * *

- Tested on: HCT116 MTAP-deleted cell lines
- test_method_notes: Cell viability assay (CellTiter-Glo, 7 days), HCT116 MTAP-deleted
- Assay type: cell-based
- reported_conditions: Homo sapiens, HCT-116; cell viability assay, HCT116 MTAP-deleted; class symbols; read-out: CC50
measurement_type: CC50

compound=C[C@@H]1C[C@@H]2Oc3cc(OC(F)(F)F)ccc3[C@@H]2N(C(=O)c2ccc3nc(N)c4cncn4c3c2)C1 result="< 100 nM"
compound=CCN(C(=O)c1cc2c(cn1)nc(N)c1cncn12)[C@@H]1COc2cc(C(F)(F)F)ccc21 result="< 100 nM"
compound=C#Cc1ccc2c(c1)OC[C@H]2N(C)C(=O)c1cc2c(cc1F)nc(N)c1cncn12 result="< 100 nM"
compound=Nc1nc2cc(F)c(C(=O)N3CCC[C@@H]4Oc5cc(C(F)(F)F)ccc5[C@@H]43)cc2n2cnc(F)c12 result="100 to 1000 nM"
compound="CN(C(=O)c1cc2c(cc1F)nc(N)c1cncn12)[C@@H]1COc2cc([C@@H]3C[C@H]3c3ccccc3)ccc21 (racemic)" result="< 100 nM"
compound=[2H]C([2H])([2H])c1ncn2c1c(N)nc1cc(F)c(C(=O)N(C)[C@@H]3COc4cc(C(F)(F)F)ccc43)cc12 result="< 100 nM"

* * *

- test_method_notes: PBS solubility (kinetic solubility from DMSO stocks)
- Assay type: physicochemical
- reported_conditions: 22 °C, aqueous buffer, kinetic from dmso stock; 1x PBS pH 7.4, 1.0% DMSO, 24-hour incubation at ambient temperature
measurement_type: solubility at 24 h

compound="Cc1ncc2c(N)nc3cnc(C(=O)N4CCC[C@@H]5Oc6cc(C(F)(F)F)ccc6[C@@H]54)cc3n12 [Ff-344]" measurement_type="solubility at 24 h" result="< 1 µM"
compound="C[C@@H]1C[C@@H]2Oc3cc(C(F)(F)F)ccc3[C@@H]2N(C(=O)c2cc3c(cn2)nc(N)c2cncn23)C1 [Ff-252]" measurement_type="solubility at 24 h" result="< 1 µM"
compound="Cc1ncn2c1c(N)nc1cnc(C(=O)N3CCC[C@@H]4Oc5cc(C(F)(F)F)ccc5[C@@H]43)cc12 [Ff-499]" measurement_type="solubility at 24 h" result="< 1 µM"
compound="Nc1nc2cc(F)c(C(=O)N3CCO[C@@H]4Cc5cc(OC(F)F)c(F)cc5[C@@H]43)cc2n2cncc12 [Ff-174]" measurement_type="solubility at 24 h" result="< 1 µM"
compound="Cc1ncc2c(N)nc3cnc(C(=O)N4CC[C@H]5C[C@@H]4c4ccc(OC(F)(F)F)cc4O5)cc3n12 [Ff-698]" measurement_type="solubility at 24 h" result="< 1 µM"
compound="Nc1nc2cc(Cl)c(C(=O)N3CCC[C@@H]4Oc5cc(C(F)(F)F)ccc5[C@@H]43)cc2n2cncc12 [Ff-587]" measurement_type="solubility at 24 h" result="< 1 µM"
compound="Cc1ncn2c1c(N)nc1cc(F)c(C(=O)N3CCC[C@@H]4Oc5cc(C(F)(F)F)ccc5[C@@H]43)cc12 [Ff-379]" measurement_type="solubility at 24 h" result="< 1 µM"
compound="Nc1nc2cnc(C(=O)N3CC[C@H]4C[C@@H]3c3c(F)cc(OC(F)(F)F)cc3O4)cc2n2cncc12 (single isomer, unassigned) [Ff-692]" measurement_type="solubility at 24 h" result="18.6 µM"
compound="Nc1nc2cnc(C(=O)N3CC[C@H]4C[C@@H]3c3ccc(OC(F)(F)F)cc3O4)cc2n2cncc12 [Ff-685]" measurement_type="solubility at 24 h" result="16.1 µM"
compound="Nc1nc2cnc(C(=O)N3CCC[C@@H]4Oc5cc(C(F)(F)F)c(F)cc5[C@@H]43)cc2n2cncc12 [Ff-115]" measurement_type="solubility at 24 h" result="< 1 µM"
compound="Nc1nc2cnc(C(=O)N3CCC[C@@H]4Oc5cc(C(F)(F)F)cc(F)c5[C@@H]43)cc2n2cncc12 (single isomer, unassigned) [Fg-53]" measurement_type="solubility at 24 h" result="19.9 µM"
compound="Nc1nc2cc(F)c(C(=O)N3CCC[C@@H]4Oc5cc(C(F)(F)F)ccc5[C@@H]43)cc2n2cncc12 [Ff-104]" measurement_type="solubility at 24 h" result="< 1 µM"
compound="Nc1nc2cnc(C(=O)N3C[C@H](F)CC4Oc5cc(C(F)(F)F)ccc5[C@@H]43)cc2n2cncc12 (mixture of isomers) [Ff-113]" measurement_type="solubility at 24 h" result="1.1 µM"
compound="Nc1nc2cc(F)c(C(=O)N3CC[C@H]4C[C@@H]3c3ccc(C(F)(F)F)nc3O4)cc2n2cncc12 [Ff-366]" measurement_type="solubility at 24 h" result="25.2 µM"

* * *

Listing: CC50 of selected compounds
- Tested on: HCT116 MTAP-deleted cell lines
- test_method_notes: Cell viability assay (CellTiter-Glo, 7 days), HCT116 MTAP-deleted
- Type: cell-based
- reported_conditions: Homo sapiens, HCT-116; cell viability assay, HCT116 MTAP-deleted; class symbols; read-out: CC50
measurement_type: CC50

compound="Cc1ncn2c1c(N)nc1cc(F)c(C(=O)N3CCC[C@@H]4Oc5cc(C(F)(F)F)ccc5[C@@H]43)cc12 [Ff-379]" result="< 100 nM"
compound="CN(C(=O)c1cc2c(cc1F)nc(N)c1cncn12)[C@@H]1COc2cc(C#CC3(CC#N)CC3)ccc21 [Ff-441]" result="< 100 nM"
compound="CN(C(=O)c1cc2c(cc1F)nc(N)c1cncn12)[C@@H]1COc2cc(C#CC3CC(F)(F)C3)ccc21 [Ff-525]" result="100 to 1000 nM"
compound="C[C@H](c1ncc(C(F)(F)F)cc1F)N(C)C(=O)c1cc2c(cc1F)nc(N)c1cncn12 [Ff-537]" result="< 100 nM"
compound="Cc1ncn2c1c(N)nc1cc(F)c(C(=O)N3CCC[C@@H]4Oc5cc(C(F)(F)C(F)(F)F)ncc5[C@@H]43)cc12 [Fg-41]" result="< 100 nM"
compound="C[C@H](c1ncccn1)N(Cc1ccc(C(F)(F)F)cn1)C(=O)c1cc2c(cc1F)nc(N)n1cncc21 [Fg-4]" result="100 to 1000 nM"
compound="CN(C(=O)c1cc2c(cc1F)nc(N)c1cncn12)C1COc2cc3ccccc3cc21 (stereo not shown) [Ff-600]" result="< 100 nM"
compound="CN(C(=O)c1cc2c(cc1F)nc(N)c1cncn12)[C@@H]1COc2cc(C3COC3)ccc21 [Ff-573]" result="100 to 1000 nM"
compound="CN(C(=O)c1cc2c(cn1)nc(N)c1cncn12)[C@@H]1COc2cc(C34CC(C3)C4)ccc21 [Ff-449]" result="< 100 nM"
compound="Nc1nc2cnc(C(=O)N3CCC[C@@H]4Cc5cc(C(F)(F)F)ccc5[C@@H]43)cc2n2cncc12 (single isomer, unassigned) [Ff-687]" result="< 100 nM"
compound="Cc1ncn2c1c(N)nc1cnc(C(=O)N3CCC[C@@H]4Oc5cc(C(F)(F)F)ccc5[C@@H]43)cc12 [Ff-499]" result="< 100 nM"
compound="Cc1ncc2c(N)nc3cc(F)c(C(=O)N4CCC[C@@H]5Oc6c(ccc(C(F)(F)F)c6F)[C@@H]54)cc3n12 [Ff-651]" result="< 100 nM"
compound="[2H]C([2H])([2H])[C@@H]1CN(C(=O)c2cc3c(cc2F)nc(N)c2cncn23)[C@H]2c3ccc(C(F)(F)F)cc3C[C@H]2O1 (single isomer, unassigned) [Ff-638]" result="< 100 nM"
compound="Cc1ncc2c(N)nc3cnc(C(=O)N4C[C@@H](C)O[C@@H]5Cc6cc(Cl)ccc6[C@@H]54)cc3n12 (single isomer, unassigned) [Ff-463]" result="100 to 1000 nM"
compound="Nc1nc2cc(F)c(C(=O)N3CC4CCC(O4)C3c3ccc(C(F)(F)F)cn3)cc2n2cncc12 (stereo not shown) [Ff-511]" result="100 to 1000 nM"
compound="Nc1nc2cc(F)c(C(=O)N(Cc3ccc(C(F)(F)F)cn3)c3cnn4ccccc34)cc2n2cncc12 [Ff-423]" result="< 100 nM"
compound="CN(C(=O)c1cc2c(cc1F)nc(N)c1cncn12)C1CCCc2cc(Cl)ccc21 (stereo not shown) [Ff-425]" result="100 to 1000 nM"
compound="CN(C(=O)c1cc2c(cc1F)nc(N)c1cncn12)[C@@H]1COc2cc([C@@H]3C[C@H]3C#N)ccc21 (single isomer, unassigned) [Ff-480]" result="< 100 nM"
compound="[2H]C([2H])([2H])[C@H]1CN(C(=O)c2cc3c(cc2F)nc(N)c2cncn23)[C@H]2c3ccc(C(F)(F)F)cc3C[C@H]2O1 (single isomer, unassigned) [Ff-639]" result="< 100 nM"
compound="CN(C(=O)c1cc2c(cc1Cl)nc(N)c1cncn12)[C@@H]1COc2cc(OC(F)(F)F)ccc21 [Ff-562]" result="< 100 nM"
compound="CC1(C)C[C@@H]2Oc3nc(C(F)(F)F)ccc3[C@@H]2N(C(=O)c2cc3c(cc2F)nc(N)c2cncn23)C1 (racemic) [Ff-384]" result="< 100 nM"
compound="CN(C(=O)c1cc2c(cc1F)nc(N)c1cncn12)[C@@H]1COc2c(Br)cccc21 [Ff-455]" result="100 to 1000 nM"
